# ASSAY_TEXT: clinical
# Design: species or system patients
# CONDITION_NOTES: human, in vivo, po, Levodopa plasmatic levels
OBSERVATION_TYPE: concentration at 5.5 h (µg/mL)
Respond with the bare value in µg/mL.

Quick note, concentration at 5.5 h for N[C@@H](Cc1ccc(O)c(O)c1)C(=O)O [levodopa, (-)-3-(3,4-dihydroxyphenyl)-L-alanine] landed at 0.42

* * *

# ASSAY_TEXT: clinical
# Set-up: species or system patients
# CONDITION_NOTES: human, in vivo, po, Levodopa plasmatic levels
OBSERVATION_TYPE: concentration at 3 h (ng/mL)
Report as a plain number; the unit ng/mL is understood.

concentration at 3 h measured on N[C@@H](Cc1ccc(O)c(O)c1)C(=O)O [levodopa, (-)-3-(3,4-dihydroxyphenyl)-L-alanine] = 650
